Data credit: patent EP4741397A1

# Assay Comment: Pharmacokinetic evaluation in mice
# Format: in vivo, CD1 mice
# Condition Notes: plasma; mouse PO (10 mg/kg)

[
  {
    "Molecule": "O=C1C(Cc2ccc(Cl)c(F)c2)CCCN1c1nc2c([nH]1)COc1cnccc1-2 (stereo not shown)",
    "Tmax (min)": 25
  }
]

====

# Assay Comment: In vivo brain permeability (plasma and cerebrospinal fluid PK)
# Condition Notes: mouse; Plasma PK, CD1 mice, PO 10 mg/kg

[
  {
    "Molecule": "O=C1C(Cc2ccc(Cl)c(F)c2)CCCN1c1nc2c([nH]1)COc1cnccc1-2 (stereo not shown) [Cpd. 25]",
    "Cmax / ng/mL": 3090
  }
]
